- protocolSummary: Pharmacokinetic profile in beagles, single oral dose
- Assay type: in vivo, beagle dogs
- studyConditions: male, dog, plasma; beagle, oral single dose 3 mg/kg, mean n=3
readout: Tmax (h)
Field: numeric (h). Do not append units.

Exercise: Given the entry "[2H]C([2H])([2H])NCc1cc(-c2ccccc2F)n(S(=O)(=O)c2ccc(F)cc2)c1" , report its measured Tmax.
Key: 2.17

* * *

- protocolSummary: Pharmacokinetics in rats according to deuterium substitution
- Assay type: in vivo
- studyConditions: Sprague-Dawley, rat, plasma; male rats, oral 10 mg/kg, 8 hr after administration; read-out: Blood concentration
readout: concentration at 8 h

compound | readout | result
CNCc1cn(S(=O)(=O)c2cccnc2)c(-c2ccc(F)cc2F)c1OC [Comparative Example 2, reference compound] | concentration at 8 h | 5.1 ng/mL

Exercise: Query: concentration at 8 h; subject: "[2H]C([2H])([2H])NCc1cn(S(=O)(=O)c2cccnc2)c(-c2ccc(F)cc2F)c1OC"
Key: 4.8 ng/mL

* * *

- protocolSummary: Oral bioavailability in beagle dogs
- Assay type: in vivo
- studyConditions: dog, plasma, po, 20 mg/kg, oral 20 mg/kg (10 mg/ml), read-out: BA (bioavailability)
readout: bioavailability

Exercise: Which value of bioavailability has been reported for "[2H]C([2H])([2H])NCc1cc(-c2ccccc2F)n(S(=O)(=O)c2ccc(F)cc2)c1" in the records?
Key: ≥ 100%

* * *

- protocolSummary: Pharmacokinetic profile in beagles, single oral dose
- Type: in vivo, beagle dogs
- studyConditions: male, dog, plasma; beagle, oral single dose 0.1 mg/kg, mean n=3
readout: half-life (h)
Give just the numeric value; h need not be written.

Exercise: Given the entry "[2H]C([2H])([2H])NCc1cc(-c2ccccc2F)n(S(=O)(=O)c2ccc(F)cc2)c1" , report its measured half-life.
Key: 1.67

* * *

- protocolSummary: Oral bioavailability in beagle dogs
- Type: in vivo
- studyConditions: dog, plasma, po, 6 mg/kg, oral 6 mg/kg (3 mg/ml), read-out: BA (bioavailability)
readout: bioavailability

Exercise: Dear colleague, I am looking for the recorded bioavailability of the following compound: "[2H]C([2H])([2H])NCc1cc(-c2ccccc2F)n(S(=O)(=O)c2ccc(F)cc2)c1"
Key: ≥ 100%

* * *

- protocolSummary: Pharmacokinetic profile in beagles, single oral dose
- Type: in vivo, beagle dogs
- studyConditions: male, dog, plasma; beagle, oral single dose 3 mg/kg, mean n=3
- Description: A total of 18 male beagle dogs (Marshall Beagle, Beijing) with an average weight of 9 to 11 kg were obtained, acclimatized, and distributed into a total of 6 groups, 3 dogs per test group. During the entire experiment, all beagle dogs were supplied with standardized solid food and water. The breeding room was kept under controlled and monitored conditions, while maintaining a temperature of 18° C. to 26° C., a humidity of 40% to 70%, and a light-dark cycle of 12 hours-12 hours. […]
readout: half-life

Exercise: Look up half-life: "[2H]C([2H])([2H])NCc1cc(-c2ccccc2F)n(S(=O)(=O)c2ccc(F)cc2)c1"
Key: 4.29 h

* * *

- protocolSummary: Oral bioavailability in beagle dogs
- Format: in vivo
- studyConditions: dog, plasma, oral 2 mg/kg (1 mg/ml), mean n=3
readout: Tmax

Exercise: // query Tmax value for entry [2H]C([2H])([2H])NCc1cc(-c2ccccc2F)n(S(=O)(=O)c2ccc(F)cc2)c1 [Example 7]
Key: 1.53 h
